PROTOCOL: Quantitative High-Throughput drug screen in 47 multiple myeloma cell lines against the NCATS MIPE library collection: LP1_DSMZ cell viability assay (AID 1918982); note: nearly all actives have a fitted effect of over 35% in size; note: potency is the fitted concentration of half-maximal effect
CONDITION_PARAMETERS: LP1 myeloma viability, CellTiter-Glo ATP luminescence, 48 h; series mostly up to 45.8 µM
Inconclusive results are not listed. Active and inactive are the calls of the source. Calls come from the whole dose curve; as a rule, active = well fitted cell-killing curve with a large enough effect; inconclusive = small, poorly fitted or top-dose-only effect, or effect the other way; inactive = no such curve, though single readings can be large or run the other way.
ENDPOINT: Potency

Check out these entries, answers already filled in.
[Q] Give the measured Potency of NC(=O)c1cnc(-c2ccc(C3(N)CCC3)cc2)c(-c2ccccc2)c1 .
[A] 2.64 µM (active)

[Q] Give the measured Potency of COC1CCC(N(C(=O)C2CCC(C)CC2)c2cc(C3=CCCCC3)sc2C(=O)O)CC1 (stereo not drawn) .
[A] inactive

[Q] Give the measured Potency of Cc1nnc(C(C)C)n1C1C[C@H]2CC[C@@H](C1)N2CC[C@H](NC(=O)C1CCC(F)(F)CC1)c1ccccc1 (stereo partly drawn) .
[A] inactive

[Q] Give the measured Potency of Cc1cnc(C(=O)O)c[n+]1[O-] .
[A] inactive

[Q] Give the measured Potency of c1cc(-c2sc(-c3ccncc3)c(-c3ccncc3)c2-c2ccncc2)ccn1 .
[A] inactive

Okay, here is my list. What is Potency for each of these?
1. Cc1ccn(-c2ccc(-c3ncco3)cc2)c(=O)c1-c1ccc2nc(N)ncc2c1
2. CCc1ccc(OCc2ccccc2C(=O)Nc2ccc3nc(C)cc(N)c3c2)cc1
3. COc1ccc(-c2coc3cc(O)ccc3c2=O)cc1
4. COc1cc2ncnc(Nc3ccc(F)c(Cl)c3)c2cc1OCCCN1CCOCC1

[A]
1: inactive; 2: 8.33 µM (active); 3: inactive; 4: 48.1 µM (active)

Okay, here is my list. What is Potency for each of these?
1. O=C(NC1CCOCC1)c1ccc(-c2cc(-c3cn[nH]c3-c3ccccn3)ccn2)cc1
2. COC[C@@H](c1ccc(C(F)(F)F)cc1)N1CCN(C2(C)CCN(C(=O)c3c(C)ncnc3C)CC2)C[C@H]1C
3. CC=CC(=O)N(CC)c1ccccc1C
4. O=C1NC(=O)C(=Cc2ccc3c(c2)OC(F)(F)O3)S1
5. C[C@]12CC[C@@H]3c4ccc(O)cc4CC[C@H]3[C@H]1C[C@@H](O)[C@H]2O
6. CO[C@H]1C[C@@H]2CC[C@@H](C)[C@@](O)(O2)C(=O)C(=O)N2CCCC[C@@H]2C(=O)O[C@H]([C@@H](C)C[C@@H]2CC[C@H](O)[C@H](OC)C2)CC(=O)[C@H](C)C=C(C)[C@@H](O)[C@@H](OC)C(=O)[C@H](C)C[C@H](C)C=CC=CC=C1C
7. C[C@H](NC(=O)C(=O)Nc1ccccc1C(C)(C)C)C(=O)N[C@@H](CC(=O)O)C(=O)COc1c(F)c(F)cc(F)c1F

[A]
14.8 µM (active)
inactive
inactive
18.7 µM (active)
inactive
inactive
9.35 µM (active)

Okay, here is my list. What is Potency for each of these?
1. Cc1c(O)cccc1C(=O)N[C@@H](CSc1ccccc1)[C@H](O)CN1C[C@H]2CCCC[C@@H]2C[C@@H]1C(=O)NC(C)(C)C
2. COc1ccc2cccc(CCNC(C)=O)c2c1

[A]
["20.9 µM (active)", "inactive"]

###

PROTOCOL: Cell Viability - Jurkat (AID 426);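 note: potency is the fitted concentration of half-maximal effect; cells exposed to compound for 40 hours at 37 °C before ATP read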
CONDITION_PARAMETERS: qHTS
Source text: NIH Chemical Genomics Center [NCGC] NIH Molecular Libraries Screening Centers Network [MLSCN] National Institutes of Environmental Health Sciences [NIEHS] National Toxicology Program [NTP] We have developed a 1536-well cell-based assay for quantitative high throughput screening (qHTS) against a number of cell lines to determine in vitro cytotoxicity of small molecules. […] 7. Detection; Luminescence; Viewlux plate reader […]
Records with an inconclusive call do not appear. Active and inactive are the calls of the source.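 Rule for the calls: active = dose-dependent loss of cell ATP signal giving a full or clear fitted curve, ranked by lower potency value; inconclusive = weak partial curve or response only at the top dose; inactive = no loss of viability signal.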
Write down one outcome, taken from yes (1) = active, no (0) = inactive

[Q] What did the test return for O=c1[nH]cnc2c1ncn2[C@H]1CC[C@@H](CO)O1 ?
[A] no (0)

[Q] What did the test return for CC1=C(/C=C/C(C)=C/C=C/C(C)=C/C(=O)Nc2ccc(O)cc2)C(C)(C)CCC1 ?
[A] yes (1)

[Q] What did the test return for O=C1NC(=O)C(c2ccccc2)(c2ccccc2)N1 ?
[A] no (0)

[Q] What did the test return for CCCNC(=O)NS(=O)(=O)c1ccc(Cl)cc1 ?
[A] no (0)

Next:
[Q] What did the test return for CC/C(=C(\c1ccccc1)c1ccc(OCCN(C)C)cc1)c1ccccc1 ?
[A] yes (1)

[Q] What did the test return for O=c1c(-c2ccc(O)cc2)coc2cc(O)ccc12 ?
[A] no (0)

[Q] What did the test return for CC(=O)c1ccc(S(=O)(=O)NC(=O)NC2CCCCC2)cc1 ?
[A] no (0)

[Q] What did the test return for O=C(O)Cc1cccc2ccccc12 ?
[A] no (0)

[Q] What did the test return for CN(C)CCC(c1ccccc1)c1ccccn1 (centres undefined) ?
[A] no (0)
